- target-or-test-system: T1, Iron regulatory protein 1 (IRP1) (UniProt P21399 1-889)
- T1 sequence: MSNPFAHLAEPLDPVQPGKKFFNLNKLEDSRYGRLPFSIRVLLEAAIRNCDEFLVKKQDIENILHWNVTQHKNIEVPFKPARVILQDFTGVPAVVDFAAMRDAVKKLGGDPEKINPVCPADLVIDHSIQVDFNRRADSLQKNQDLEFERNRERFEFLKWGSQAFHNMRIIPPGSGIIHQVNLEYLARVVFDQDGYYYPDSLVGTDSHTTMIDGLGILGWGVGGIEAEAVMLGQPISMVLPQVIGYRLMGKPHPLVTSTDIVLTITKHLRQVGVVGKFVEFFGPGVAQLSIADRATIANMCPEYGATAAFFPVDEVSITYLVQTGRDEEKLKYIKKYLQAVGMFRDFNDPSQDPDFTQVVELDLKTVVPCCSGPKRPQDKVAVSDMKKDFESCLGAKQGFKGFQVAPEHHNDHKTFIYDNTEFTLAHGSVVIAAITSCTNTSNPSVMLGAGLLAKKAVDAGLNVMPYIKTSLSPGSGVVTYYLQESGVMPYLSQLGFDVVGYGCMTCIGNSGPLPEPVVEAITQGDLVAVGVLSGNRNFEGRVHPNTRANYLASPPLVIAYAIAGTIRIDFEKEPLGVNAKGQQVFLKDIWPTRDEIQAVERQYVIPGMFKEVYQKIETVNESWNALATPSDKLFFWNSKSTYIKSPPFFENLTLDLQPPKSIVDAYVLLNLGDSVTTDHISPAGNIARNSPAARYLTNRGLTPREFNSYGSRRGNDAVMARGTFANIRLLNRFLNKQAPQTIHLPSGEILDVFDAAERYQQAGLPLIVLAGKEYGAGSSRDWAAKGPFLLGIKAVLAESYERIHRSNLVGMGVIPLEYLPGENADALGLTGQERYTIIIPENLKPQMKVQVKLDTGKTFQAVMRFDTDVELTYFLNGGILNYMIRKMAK
- method-notes: fluorescence quenching (intrinsic); 5 °C, no Fe; 20 mM HEPES pH 7.4, 100 mM KCl, 1 mM MgCl2; 50 nM IRP1, 0-200 nM RNA; 15 min; 25 °C (5-30 °C series); Fe2+ 50 uM anaerobic where stated
- assay-setup: protein: commercial; hairpin (stem-loop), melted and reannealed
pKd: −log10 of the molar value.

{"columns": ["binder", "pKd"],
 "data": [
  ["ACUGGGAGUGGCCAUUCGACGACAGUGUGGUGUAAAGGAAUUCAUUAGCC (structured_RNA) [alpha-Syn IRE RNA (SNCA 5'-UTR)]", 7.87]
]}
